Target: human 5HT1A-serotonergic receptor (Homo sapiens)
Construct: cell membranes used
Sequence (P08908 1-422): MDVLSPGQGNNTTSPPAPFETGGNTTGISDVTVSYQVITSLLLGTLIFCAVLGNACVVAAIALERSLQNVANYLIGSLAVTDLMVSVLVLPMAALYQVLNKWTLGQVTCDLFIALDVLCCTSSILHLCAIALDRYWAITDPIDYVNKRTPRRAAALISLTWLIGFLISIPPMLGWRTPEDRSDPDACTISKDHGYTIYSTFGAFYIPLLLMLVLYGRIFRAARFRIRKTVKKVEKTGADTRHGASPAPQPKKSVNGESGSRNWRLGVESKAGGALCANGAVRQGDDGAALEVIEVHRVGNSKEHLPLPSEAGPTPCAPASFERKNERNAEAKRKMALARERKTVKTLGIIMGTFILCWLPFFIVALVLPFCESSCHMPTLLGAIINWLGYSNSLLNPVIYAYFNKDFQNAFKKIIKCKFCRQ
Assay: Radioligand binding to recombinant 5-HT1A receptors
Conditions: [3H]8-OH-DPAT 1 nM, membranes of HeLa cells with human 5-HT1A receptor; Ki from IC50 by Cheng & Prusoff; read-out: Binding affinity for 5HT1A receptors, Ki
pKi: −log10 of the molar value.
Label y when pKi is at or above 8; otherwise label n.

A selection of reference data follows.
- compound: "O=C(c1ccccn1)N1c2ccccc2CCC1CN1CCN(c2cccc3[nH]ccc23)CC1 (centres unmarked) [Example 68A32]"
  class_assignment: "n"
- compound: "O=C(c1ccncc1)N1c2ccccc2CCC1CN1CCN(c2cccc3[nH]ccc23)CC1 (centres unmarked) [Example 68A34]"
  class_assignment: "n"
- compound: "O=C(COCc1ccccc1)N1c2ccccc2CCC1CN1CCN(c2cccc3[nH]ccc23)CC1 (centres unmarked) [Example 68A44]"
  class_assignment: "n"
- compound: "O=C(C1CCCCC1)N1c2ccccc2CCC1CN1CCC(c2cccc(Cl)c2)CC1 (centres unmarked) [Example 72A68]"
  class_assignment: "n"
- compound: "COc1ccc(C(=O)N2c3ccccc3CCC2CN2CCN(c3ccc(F)cc3OC)CC2)cc1 (centres unmarked) [Example 74A5]"
  class_assignment: "y"
- compound: "O=C(C1CCCCC1)N1c2ccccc2CCC1CN1CCC(c2ccccc2Cl)CC1 (centres unmarked) [Example 72A69]"
  class_assignment: "y"
- compound: "O=C(Cc1ccc2c(c1)OCO2)N1c2ccccc2CCC1CN1CCN(c2cccc3[nH]ccc23)CC1 (centres unmarked) [Example 68A49]"
  class_assignment: "n"
- compound: "O=C(C1CCCCC1)N1c2ccccc2CCC1CN1CCN(c2cccc(Cl)c2Cl)CC1 (centres unmarked) [Example 72A8]"
  class_assignment: "n"
- compound: "COc1cc(F)ccc1N1CCN(CC2CCc3cc(N)ccc3N2C(=O)C2CCCCC2)CC1 (centres unmarked) [Example 85]"
  class_assignment: "n"

Next, consider the following compound.
Input: State whether the measured pKi reaches 8, counting equality as reaching it, for O=C(C1CCCCC1)N1c2ccccc2CC1CN1CCN(c2cccc3[nH]ccc23)CC1 (centres unmarked) [Example 48]
Output: n

----------
Molecular target: human 5HT1A-serotonergic receptor (Homo sapiens, UniProt P08908)
Construct: cell membranes used
Assay: Radioligand binding to recombinant 5-HT1A receptors
Settings: [3H]8-OH-DPAT 1 nM, membranes of HeLa cells with human 5-HT1A receptor; Ki from IC50 by Cheng & Prusoff; read-out: Binding affinity for 5HT1A receptors, Ki
Protocol: Genomic clone G-21 coding for the human 5HT1A-serotonergic receptor was stably transfected in a human cell line (HeLa). HeLa cells were grown as monolayers in Dulbecco's modified Eagle medium (DMEM), containing 10% foetal bovine serum, gentamicin ([…]) and 5% carbon dioxide, at 37° C. The cells were detached from the growth flask at 95% confluence by a cell scraper and were lysed in cold 5 mM Tris and 5 mM EDTA buffer (pH 7.4). […] Non-specific binding was determined in the presence of 10 μM 5-HT. […]
Rule: measured Ki below 0.02 µM gets T; anything equal to or greater than 0.02 µM gets F.

- molecule: "O=C(C1CCCCC1)N1c2ccccc2CCC1CN1CCN(c2ccccc2OS(=O)(=O)C(F)(F)F)CC1 (stereo not shown)"
  class_assignment: "T"
- molecule: "O=C(Cc1cccs1)N1c2ccccc2CCC1CN1CCN(c2cccc3c2OCCO3)CC1 (stereo not shown)"
  class_assignment: "T"
- molecule: "COc1cc(F)ccc1N1CCN(CC2CCc3cc(C)ccc3N2C(=O)C2CCCCCC2)CC1 (stereo not shown)"
  class_assignment: "T"
- molecule: "O=C(Nc1ccc(F)cc1)N1c2ccccc2CCC1CN1CCN(c2cccc3[nH]ccc23)CC1 (stereo not shown)"
  class_assignment: "F"
- molecule: "O=C(C1CCCCC1)N1c2cc(F)ccc2CCC1CN1CCN(c2cccc3[nH]ccc23)CC1 (stereo not shown)"
  class_assignment: "T"
- molecule: "O=C(C1CCCCC1)N1c2ccccc2CCC1CN1CCN(c2ncccn2)CC1 (stereo not shown)"
  class_assignment: "T"
- molecule: "O=C(Cc1ccccc1Cl)N1c2ccccc2CCC1CN1CCN(c2cccc3[nH]ccc23)CC1 (stereo not shown)"
  class_assignment: "T"
- molecule: "COc1cc(F)ccc1N1CCN(CC2CCc3cc(C)ccc3N2C(=O)C2CCCCC2)CC1 (stereo not shown)"
  class_assignment: "F"

Input: Report whether reported Ki is lower than 0.02 µM (strictly) for O=C(C1CCCCC1)N1c2ccccc2CCC1CN1CCN(C2CCCc3ccccc32)CC1 (stereo not shown)
Output: F

----------
Molecular target: human 5HT1A-serotonergic receptor (Homo sapiens, UniProt P08908)
Construct: expressed in transfected cells; host or cells: HeLa (human cell line), stably transfected; cell membranes used
Test: Radioligand binding to recombinant 5-HT1A receptors
Conditions: [3H]8-OH-DPAT 1 nM, membranes of HeLa cells with human 5-HT1A receptor; Ki from IC50 by Cheng & Prusoff; read-out: Binding affinity for 5HT1A receptors, Ki
Procedure: Genomic clone G-21 coding for the human 5HT1A-serotonergic receptor was stably transfected in a human cell line (HeLa). HeLa cells were grown as monolayers in Dulbecco's modified Eagle medium (DMEM), containing 10% foetal bovine serum, gentamicin ([…]) and 5% carbon dioxide, at 37° C. The cells were detached from the growth flask at 95% confluence by a cell scraper and were lysed in cold 5 mM Tris and 5 mM EDTA buffer (pH 7.4). […] Non-specific binding was determined in the presence of 10 μM 5-HT. […]
Catalogue of Ki values
Entry rule: numbers only, all in µM.

See these solved cases before continuing.
- molecule: "COc1cc(Cl)ccc1N1CCN(CC2CCc3ccccc3N2C(=O)C2CCCCC2)CC1 (stereo not shown) [Example 62A2]"
  Ki [µM]: 0.0156
- molecule: "Cc1ccc(F)c(N2CCN(CC3CCc4ccccc4N3C(=O)C3CCCCC3)CC2)c1 (stereo not shown) [Example 35A12]"
  Ki [µM]: 0.0095
- molecule: "O=C(C1CCCCC1)N1c2ccccc2CCC1CN1CCN(c2cccc3nonc23)CC1 (stereo not shown) [Example 60A8]"
  Ki [µM]: 0.0122

Reported Ki of O=C(C1CCCCC1)N1c2ccccc2CCC1CN1CCC(c2ccccc2F)CC1 (stereo not shown) [Example 72A40] : 0.0198

----------
Target: human 5HT1A-serotonergic receptor (Homo sapiens, UniProt P08908)
Construct: cell membranes used
Experiment: Radioligand binding to recombinant 5-HT1A receptors
Details: [3H]8-OH-DPAT 1 nM, membranes of HeLa cells with human 5-HT1A receptor; Ki from IC50 by Cheng & Prusoff; read-out: Binding affinity for 5HT1A receptors, Ki
measured_metric: Ki (nM)
Entry rule: numbers only, all in nM.

- compound: "O=C(c1ccc[nH]1)N1c2ccccc2CCC1CN1CCN(c2nccc3ccccc23)CC1 (stereo not shown) [Example 75A3]"
  Ki [nM]: 14
- compound: "O=C(Cc1ccccc1C(F)(F)F)N1c2ccccc2CCC1CN1CCN(c2cccc3[nH]ccc23)CC1 (stereo not shown) [Example 68A64]"
  Ki [nM]: 13.4

Reported Ki of Cc1c(F)cccc1C1CCN(CC2CCc3ccccc3N2C(=O)C2CCCCC2)CC1 (stereo not shown) [Example 72A57] : 6.4

Reported Ki of O=C(C1CCCCC1)N1c2ccccc2CCC1CN1CCN(Cc2ccccc2Cl)CC1 (stereo not shown) [Example 35A34] : 12.3

Reported Ki of O=C(c1cccnc1)N1c2ccccc2CCC1CN1CCN(c2cccc3[nH]ccc23)CC1 (stereo not shown) [Example 68A33] : 13.3

Reported Ki of CC(=O)n1ccc2c(N3CCN(CC4CCc5ccccc5N4C(=O)C4CCCCC4)CC3)cccc21 (stereo not shown) [Example 35A25] : 10.1

----------
Biological target: human 5HT1A-serotonergic receptor (Homo sapiens, UniProt P08908)
Construct: cell membranes used
Sequence (P08908 1-422): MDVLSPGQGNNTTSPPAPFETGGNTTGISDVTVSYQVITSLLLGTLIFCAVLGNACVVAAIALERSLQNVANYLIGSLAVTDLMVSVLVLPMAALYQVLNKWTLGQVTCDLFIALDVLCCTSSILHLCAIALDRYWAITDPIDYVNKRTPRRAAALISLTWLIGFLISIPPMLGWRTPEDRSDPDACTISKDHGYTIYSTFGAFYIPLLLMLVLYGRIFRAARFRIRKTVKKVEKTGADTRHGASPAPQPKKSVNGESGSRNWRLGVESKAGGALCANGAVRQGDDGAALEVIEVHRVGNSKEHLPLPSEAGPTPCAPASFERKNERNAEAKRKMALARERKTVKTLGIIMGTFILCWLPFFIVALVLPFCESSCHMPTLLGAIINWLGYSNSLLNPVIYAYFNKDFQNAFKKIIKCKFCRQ
Assay: Radioligand binding to recombinant 5-HT1A receptors
Settings: [3H]8-OH-DPAT 1 nM, membranes of HeLa cells with human 5-HT1A receptor; Ki from IC50 by Cheng & Prusoff; read-out: Binding affinity for 5HT1A receptors, Ki
measured_metric: pKi
// pKi is dimensionless: -log10 of concentration (M)

- compound: "O=C(c1ccco1)N1c2ccccc2CCC1CN1CCN(c2nccc3ccccc23)CC1 (stereo not shown)"
  pKi: 7.84

Reported pKi of COc1cccc(C(=O)N2c3ccccc3CCC2CN2CCN(c3cccc4[nH]ccc34)CC2)c1 (stereo not shown) : 8.04

Reported pKi of CCc1ccccc1N1CCN(CC2CCc3ccccc3N2C(=O)C2CCCCC2)CC1 (stereo not shown) : 8.11

Reported pKi of O=C(c1ccccc1)N1c2ccccc2CCC1CN1CCN(c2cccc3[nH]ccc23)CC1 (stereo not shown) : 8.03
